B1: mRNA-splicing (parent)
chain: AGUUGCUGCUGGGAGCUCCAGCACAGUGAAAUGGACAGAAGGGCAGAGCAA

Variants of: B1
TEST_SUMMARY: exon inclusion enrichment index; higher = more inclusion; WT1 exon 5 minigene, HEK293
MEASUREMENT_TYPE: exon inclusion enrichment index
Numbers only.

Known results for variants:
Query block: Specify reported exon inclusion enrichment index for the variant shown: G5U C6U U7C U10C
Result block: 3.03

Query block: Specify reported exon inclusion enrichment index for the variant shown: G5C C6U G8C C9U U10C A37C G38C
Result block: 1.95

Query block: Specify reported exon inclusion enrichment index for the variant shown: G5A C6U U7A G8U C9A U27C G28U
Result block: 0.0508

Query block: Specify reported exon inclusion enrichment index for the variant shown: G5C C6U G8C C9U U10C A39U A40U
Result block: 0.67

Query block: Specify reported exon inclusion enrichment index for the variant shown: G5A U7C C9G U10C
Result block: 2.65

Query block: Specify reported exon inclusion enrichment index for the variant shown: G5A C6G U7G C9A A14C
Result block: 0.000759

For every item in the list below, what is its measured exon inclusion enrichment index?
1. C6A U7C C9A U10C C18G C19A
2. G5A C6U U7A G8U C9A G11U G12C
3. G5A C6U U7A G8U U10C
4. C6A U7C C9A U10C G26A U27G
5. G5C C6A U7C G8A U10A A37G

Result block:
1. 3.84
2. 0.033
3. 1.03
4. 3.54
5. 0.237

All values here come from the RNAGym collection of RNA variant scans (doi:10.1101/gr.219683.116).
